Molecular target: human recombinant P2X7 receptor (Homo sapiens, UniProt Q99572)
Sequence (Q99572 whole entry): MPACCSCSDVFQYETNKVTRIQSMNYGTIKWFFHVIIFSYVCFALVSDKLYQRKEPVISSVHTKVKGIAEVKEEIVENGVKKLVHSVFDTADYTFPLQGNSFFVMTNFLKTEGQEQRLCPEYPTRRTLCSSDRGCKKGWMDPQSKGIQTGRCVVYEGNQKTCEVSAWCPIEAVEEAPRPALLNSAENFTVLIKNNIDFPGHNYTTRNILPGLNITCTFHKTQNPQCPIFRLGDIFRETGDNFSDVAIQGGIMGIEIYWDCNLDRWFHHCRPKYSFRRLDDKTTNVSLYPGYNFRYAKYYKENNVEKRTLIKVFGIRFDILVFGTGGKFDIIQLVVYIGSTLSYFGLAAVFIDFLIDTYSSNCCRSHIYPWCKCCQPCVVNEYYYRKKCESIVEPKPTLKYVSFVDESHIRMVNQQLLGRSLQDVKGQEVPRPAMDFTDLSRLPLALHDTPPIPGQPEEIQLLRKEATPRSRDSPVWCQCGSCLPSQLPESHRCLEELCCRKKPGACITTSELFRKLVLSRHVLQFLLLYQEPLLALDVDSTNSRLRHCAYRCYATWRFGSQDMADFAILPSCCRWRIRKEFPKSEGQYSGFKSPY
Test: YO-PRO assay (YO-PRO-1 uptake) in HEK cells stably expressing P2X7
Conditions: HEK-293 cells expressing human recombinant P2X7 receptor; ATP 250 μM, 90 minutes; YO-PRO-1 fluorescence (FLIPR tetra); read-out: IC50 (antagonistic activity with respect to the P2X7 receptor)
property_label: pIC50
Quick note: pIC50 means taking -log10 of the concentration in moles per liter.

Ask: Can you look up pIC50 on human recombinant P2X7 receptor (Homo sapiens, UniProt Q99572) for COCCN(c1ccc(Cl)c(C(=O)NCC2(O)CCCCC2)c1)c1ccnc(Cl)n1 ?
Reply: 6.27

Ask: Can you look up pIC50 on human recombinant P2X7 receptor (Homo sapiens, UniProt Q99572) for CN(C)c1cccc(Oc2ccc(Cl)c(C(=O)NCC3(O)CCCCC3)c2)n1 ?
Reply: 6.91

Ask: Can you look up pIC50 on human recombinant P2X7 receptor (Homo sapiens, UniProt Q99572) for O=C(NCC1(O)CCCCC1)c1cc([S+]([O-])c2ccccn2)ccc1Cl (racemic) ?
Reply: 6.58

Ask: Can you look up pIC50 on human recombinant P2X7 receptor (Homo sapiens, UniProt Q99572) for O=C(NCC1(O)CCCCC1)c1cc([S+]([O-])c2ccnc(Cl)n2)ccc1Cl (racemic) ?
Reply: 6.19

Ask: Can you look up pIC50 on human recombinant P2X7 receptor (Homo sapiens, UniProt Q99572) for COCCN(c1ccc(Cl)c(C(=O)NCC2(O)CCCCC2)c1)c1cnccn1 ?
Reply: 5.84

Ask: Can you look up pIC50 on human recombinant P2X7 receptor (Homo sapiens, UniProt Q99572) for CNc1cncc(Oc2ccc(Cl)c(C(=O)NCC3(O)CCCCC3)c2)n1 ?
Reply: 6.79

Ask: Can you look up pIC50 on human recombinant P2X7 receptor (Homo sapiens, UniProt Q99572) for O=C(NCC1(O)CCCCC1)c1cc(Sc2ccnc(Cl)n2)ccc1Cl ?
Reply: 6.58

Ask: Can you look up pIC50 on human recombinant P2X7 receptor (Homo sapiens, UniProt Q99572) for CN(c1ccc(Cl)c(C(=O)NCC2(O)CCCCC2)c1)c1cncc(Cl)n1 ?
Reply: 6.61

###

Biological target: human recombinant P2X7 receptor (Homo sapiens)
Assay: YO-PRO assay (YO-PRO-1 uptake) in HEK cells stably expressing P2X7
Settings: HEK-293 cells expressing human recombinant P2X7 receptor; ATP 250 μM, 90 minutes; YO-PRO-1 fluorescence (FLIPR tetra); read-out: IC50 (antagonistic activity with respect to the P2X7 receptor)
Protocol: Cell line generation was performed in general according to established molecular cloning protocols. Specifically, RNA was extracted from human whole blood using the Qiagen RNeasy kit (Qiagen, CH) according to the manufacturer's instructions. Subsequently cDNA was made (Superscript II, Invitrogen AG, CH) and the human P2X7 gene (genbank ref. BC011913) was amplified with the following primers: [NT] and [NT] […]
Hi! Could you tag entries with IC50 below 300 nM as criterion met, and those at or above as criterion not met? Much appreciated.

These recorded examples may help you get a feel for the data.
CNc1cncc(N(C)c2ccc(Cl)c(C(=O)NCC3(O)CCCCC3)c2)n1 [Example 83]: criterion met
COCCN(c1ccc(Cl)c(C(=O)NCC2(O)CCCCC2)c1)c1cc[nH]c(=O)n1 [Example 33]: criterion met
CNc1nccc(N(C)c2ccc(Cl)c(C(=O)NCC3(O)CCCCC3)c2)n1 [Example 14]: criterion met
O=C(NCC1(O)CCCCC1)c1cc(Cc2cc[nH]c(=O)n2)ccc1Cl [Example 147]: criterion met
COc1nccc(Cc2ccc(Cl)c(C(=O)NCC3(O)CCCCC3)c2)n1 [Example 148]: criterion not met

// next entry
Ask: Strictly below 300 nM: is that where IC50 of COCCN(c1ccccc1)c1ccc(Cl)c(C(=O)NCC2(O)CCCCC2)c1 [Example 3] sits?
Reply: criterion not met

###

Biological target: human recombinant P2X7 receptor (Homo sapiens, UniProt Q99572)
Assay: YO-PRO assay (YO-PRO-1 uptake) in HEK cells stably expressing P2X7
Details: HEK-293 cells expressing human recombinant P2X7 receptor; ATP 250 μM, 90 minutes; YO-PRO-1 fluorescence (FLIPR tetra); read-out: IC50 (antagonistic activity with respect to the P2X7 receptor)
Entries and their log10(IC50) values follow.
Heads up: the numbers are on a log10 scale; they represent IC50 in nM.

Ask: Look up log10(IC50): O=C(NCC1(O)CCCCC1)c1cc(Cn2cccnc2=O)ccc1Cl [Example 143]
Reply: 2.58

Ask: Look up log10(IC50): CCN(c1ccc(Cl)c(C(=O)NCC2(O)CCCCC2)c1)c1ccnc(Cl)n1 [Example 20]
Reply: 2.36

Ask: Look up log10(IC50): COc1cccc(Oc2ccc(Cl)c(C(=O)NCC3(O)CCCCC3)c2)n1 [Example 111]
Reply: 1.32

Ask: Look up log10(IC50): O=C(NCC1(O)CCCCC1)c1cc(Nc2ccnc(O)n2)ccc1Cl [Example 16]
Reply: 1.86

Ask: Look up log10(IC50): O=C(NCC1(O)CCCCC1)c1cc(Nc2ccccc2F)ccc1Cl [Example 4]
Reply: 2.01

Ask: Look up log10(IC50): CN(c1ccc(Cl)c(C(=O)NCC2(O)CCCCC2)c1)c1nccc(=O)[nH]1 [Example 75]
Reply: 3.01

Ask: Look up log10(IC50): CN(c1ccc(Cl)c(C(=O)NCC2(C(N)=O)CCCCC2)c1)c1ccnc(=O)[nH]1 [Example 54]
Reply: 2.36

Ask: Look up log10(IC50): COCCN(c1ccc(Cl)c(C(=O)NCC2(O)CCCCC2)c1)c1ccnc(OC)n1 [Example 34]
Reply: 2.93

Ask: Look up log10(IC50): CN(c1ccc(Cl)c(C(=O)NCC2(O)CCCCCC2)c1)c1ccnc(Cl)n1 [Example 45]
Reply: 1.95

Ask: Look up log10(IC50): CC(C)CN(c1ccc(Cl)c(C(=O)NCC2(O)CCCCC2)c1)c1cc[nH]c(=O)n1 [Example 27]
Reply: 1.48

###

Biological target: human recombinant P2X7 receptor (Homo sapiens, UniProt Q99572)
Assay: YO-PRO assay (YO-PRO-1 uptake) in HEK cells stably expressing P2X7
Conditions: HEK-293 cells expressing human recombinant P2X7 receptor; ATP 250 μM, 90 minutes; YO-PRO-1 fluorescence (FLIPR tetra); read-out: IC50 (antagonistic activity with respect to the P2X7 receptor)
Entries and their pIC50 values follow.
Quick note: pIC50 means taking -log10 of the concentration in moles per liter.

Recorded pIC50, per entry:
CSc1ccnc(Nc2ccc(Cl)c(C(=O)NCC3(O)CCCCC3)c2)n1: 5.84
C[C@@H](NC(=O)c1cc(N(C)c2cc[nH]c(=O)n2)ccc1Cl)C1CCCCC1: 7.42
CC(C)CN(c1ccc(Cl)c(C(=O)NCC2(O)CCCCC2)c1)c1ccnc(Cl)n1: 6.50
CN(c1ccc(Cl)c(C(=O)NCC2(O)CCCCC2)c1)c1ccccn1: 6.95

Ask: Look up pIC50: Cn1c(Oc2ccc(Cl)c(C(=O)NCC3(O)CCCCC3)c2)cccc1=O
Reply: 7.02

Ask: Look up pIC50: O=C(NCC1(O)CCCCC1)c1cc(N(Cc2ccccc2)c2ccnc(Cl)n2)ccc1Cl
Reply: 6.34

###

Molecular target: human recombinant P2X7 receptor (Homo sapiens, UniProt Q99572)
Test: YO-PRO assay (YO-PRO-1 uptake) in HEK cells stably expressing P2X7
Details: HEK-293 cells expressing human recombinant P2X7 receptor; ATP 250 μM, 90 minutes; YO-PRO-1 fluorescence (FLIPR tetra); read-out: IC50 (antagonistic activity with respect to the P2X7 receptor)
Entries and their IC50 values follow.
Give just the number in nM; leave the unit off.

O=C(NCC1(O)CCCCC1)c1cc(Cn2ccccc2=O)ccc1Cl: 80
O=C(NCC1(O)CCCCC1)c1cc(Sc2ccccn2)ccc1Cl: 46
Cn1c(Nc2ccc(Cl)c(C(=O)NCC3(O)CCCCC3)c2)cccc1=O: 123
CN(c1ccc(Cl)c(C(=O)NCC2(O)CCCCC2)c1)c1ccccc1F: 531
O=C(NCC1(O)CCCCC1)c1cc(N(CC2CCCC2)c2ccnc(Cl)n2)ccc1Cl: 367
CN(c1ccc(Cl)c(C(=O)NCC2(O)CCCCCCC2)c1)c1ccnc(Cl)n1: 116

Ask: Look up IC50: O=C(NCC1(O)CCCCC1)c1cc(Nc2cccc(=O)[nH]2)ccc1Cl
Reply: 160

Ask: Look up IC50: COCCn1c(N(C)c2ccc(Cl)c(C(=O)NCC3(O)CCCCC3)c2)cccc1=O
Reply: 332

Ask: Look up IC50: COc1cncc(Oc2ccc(Cl)c(C(=O)NCC3(O)CCCCC3)c2)n1
Reply: 123

Ask: Look up IC50: CN(c1ccc(Cl)c(C(=O)NCC2(O)CCCC2)c1)c1ccnc(=O)[nH]1
Reply: 258

Ask: Look up IC50: O=C(NCC1(O)CCCCC1)c1cc(Oc2ccncn2)ccc1Cl
Reply: 100

Ask: Look up IC50: COC1(CNC(=O)c2cc(N(C)c3ccnc(Cl)n3)ccc2Cl)CCCCC1
Reply: 460

Ask: Look up IC50: CN(c1ccc(Cl)c(C(=O)NCC2(O)CCCCC2)c1)c1ccc(Cl)nn1
Reply: 271

Ask: Look up IC50: CSc1nccc(Nc2ccc(Cl)c(C(=O)NCC3(O)CCCCCC3)c2)n1
Reply: 681

Ask: Look up IC50: O=C(NCC1(O)CCC(F)(F)CC1)c1cc(Cc2cc[nH]c(=O)n2)ccc1Cl
Reply: 33

Ask: Look up IC50: O=C(NCC1(O)CCCCC1)c1cc(Cc2ccccn2)ccc1Cl
Reply: 21

Ask: Look up IC50: COC1(CNC(=O)c2cc(N(C)c3ccnc(=O)[nH]3)ccc2Cl)CCCCC1
Reply: 170

Ask: Look up IC50: CN(c1ccc(Cl)c(C(=O)NCC2(O)CCCC2)c1)c1ccnc(Cl)n1
Reply: 1120
